# studySystem: Melanocortin receptor 4 (Homo sapiens, UniProt P32245)
# Sequence (P32245 whole entry): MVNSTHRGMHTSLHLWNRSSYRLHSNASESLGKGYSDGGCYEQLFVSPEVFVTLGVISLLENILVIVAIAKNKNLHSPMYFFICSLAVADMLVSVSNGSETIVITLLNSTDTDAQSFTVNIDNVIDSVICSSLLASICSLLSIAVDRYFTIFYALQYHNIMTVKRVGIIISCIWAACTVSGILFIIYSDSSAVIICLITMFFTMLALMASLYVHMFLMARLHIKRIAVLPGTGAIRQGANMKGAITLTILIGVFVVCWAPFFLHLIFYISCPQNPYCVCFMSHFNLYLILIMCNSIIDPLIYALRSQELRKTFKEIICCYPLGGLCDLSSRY
# assayName: Intracellular level of cAMP in cells expressing the melanocortin 4 receptor
pEC50: −log10 of the molar value.
metric: pEC50

Answered cases to consult:
CCN(C(C)=O)C(C)c1ccccc1N1CCN(C(=O)[C@H](CC(=O)N2CCSC2)Cc2ccc(Cl)cc2)CC1 (stereo partly specified) = 6.28
CC(C)(C)CC(=O)N1CCN(C(=O)C[C@H](Cc2ccc(Cl)cc2)C(=O)N2CCN(c3ccccc3N(CC3CC3)S(C)(=O)=O)CC2)CC1 = 7.13
CS(=O)(=O)N(CC1CC1)c1ccccc1N1CCN(C(=O)[C@H](CC(=O)N2CCN(C(=O)c3ccccc3)CC2)Cc2ccc(Cl)cc2)CC1 = 7.08

[a] CCN(C(C)=O)C(C)c1ccccc1N1CCN(C(=O)[C@H](CC(=O)NCc2ccccc2F)Cc2ccc(Cl)cc2)CC1 (stereo partly specified)
[b] CCN(C(C)=O)C(C)c1ccccc1N1CCN(C(=O)[C@H](CC(=O)N2CCC2)Cc2ccc(Cl)cc2)CC1 (stereo partly specified)
[c] CCN(C(C)=O)C(C)c1ccccc1N1CCN(C(=O)[C@H](CC(=O)NC2CCC2)Cc2ccc(Cl)cc2)CC1 (stereo partly specified)
[d] CS(=O)(=O)N(CC1CC1)c1ccccc1N1CCN(C(=O)[C@H](CC(=O)N2CCNCC2)Cc2ccc(Cl)cc2)CC1
## Input Hey, quick one: sort these by pEC50, largest value first please. In your reply, arrange the labels in the requested order.
## Output c, a, b, d

====

Lab note: IC50 readings collected with Melanocyte-stimulating hormone receptor (Mus musculus) for the following compounds.
Sequence (Q01727 whole entry): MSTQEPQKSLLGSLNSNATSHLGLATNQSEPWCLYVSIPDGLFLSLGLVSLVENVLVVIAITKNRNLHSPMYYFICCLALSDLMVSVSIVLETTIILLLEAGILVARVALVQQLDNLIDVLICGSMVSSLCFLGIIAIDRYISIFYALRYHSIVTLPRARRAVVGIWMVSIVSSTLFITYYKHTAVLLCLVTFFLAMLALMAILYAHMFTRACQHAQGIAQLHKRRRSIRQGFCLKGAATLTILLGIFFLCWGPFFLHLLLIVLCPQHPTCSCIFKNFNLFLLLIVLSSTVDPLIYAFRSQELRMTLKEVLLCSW

Before answering, review these 4 worked examples.
CC(=O)N1CCN(C(=O)C[C@H](Cc2ccc(Cl)cc2)C(=O)N2CCN(c3ccccc3N(CC3CC3)S(C)(=O)=O)CC2)CC1 = > 10 µM
CCN(C(C)=O)C(C)c1ccccc1N1CCN(C(=O)[C@H](CC(=O)NC2CCC2)Cc2ccc(Cl)cc2)CC1 (stereo partly specified) = > 0.6 µM
CCCN1CCN(C(=O)C[C@H](Cc2ccc(Cl)cc2)C(=O)N2CCN(c3ccccc3N(CC3CC3)S(C)(=O)=O)CC2)CC1 = > 10 µM
CS(=O)(=O)N1CC2(CCN(C(=O)[C@@H](Cc3ccc(Cl)cc3)NC(=O)[C@H]3Cc4ccccc4CN3)CC2)c2ccccc21 = 0.153 µM

## Input Return value of IC50 for input "CC(C)(C)OC(=O)N1CCN(C(=O)C[C@H](Cc2ccc(Cl)cc2)C(=O)N2CCN(c3ccccc3N(CC3CC3)S(C)(=O)=O)CC2)CC1" , no commentary.
## Output > 10 µM

## Input State, in one line, measured IC50 of "CCOC(=O)N1CCN(C(=O)C[C@H](Cc2ccc(Cl)cc2)C(=O)N2CCN(c3ccccc3N(CC3CC3)S(C)(=O)=O)CC2)CC1"
## Output > 10 µM

====

# studySystem: Melanocortin receptor 4 (Homo sapiens, UniProt P32245)
pIC50: −log10 of the molar value.
metric: pIC50

CCN(C(C)=O)C(C)c1ccccc1N1CCN(C(=O)[C@H](CC(=O)NCc2ccccc2F)Cc2ccc(Cl)cc2)CC1 (stereo partly drawn) = 7.89
CCN1CCN(C(=O)C[C@H](Cc2ccc(Cl)cc2)C(=O)N2CCN(c3ccccc3N(CC3CC3)S(C)(=O)=O)CC2)CC1 = 8.02
